TARGET_DESC: CaSla1-D3
EXPERIMENT: SPOT peptide array binding signal intensity (averaged, normalized) (arbitrary units (background-subtracted, floor 0; scale differs between SH3 domains)); higher = stronger binding of the SH3 domain to the peptide
OBSERVATION_TYPE: SPOT peptide array binding signal intensity
Answer with a bare number; do not write a unit.

BINDER: FPPKRKPLLRPQRSD
VALUE_MEASURED: 9.75

Now let's try a different one.
Consider the binder `RLSFFFPLDPAYIRN` and give its measured SPOT peptide array binding signal intensity.
35.8
